B1: HDV Ribozyme (parent)
chain: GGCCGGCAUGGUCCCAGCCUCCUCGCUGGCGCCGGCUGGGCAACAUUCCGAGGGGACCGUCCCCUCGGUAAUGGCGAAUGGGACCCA

- Variants of: B1
- Method Description: self-cleavage, relative activity (ratio to wild type); higher = more cleavage; co-transcriptional
Classification field: enter 1.0 for self-cleavage values not below 0.4, 0.0 for values below it.

Worked examples, 5 variants total:
Entry Sequence: GGCCGGCAUGGUCCCAGCCUCCUCGCUGGCGCCGGCUGGGCAACAUUCUGAGGGGACCGUCCCCUCGGUAAUGGCGAAUGGGACCAA [C49U C86A]
Class: 1.0
//
Entry Sequence: GGCCGGCAUGGUCCCAGCUUCCUCGAUGGCGCCGGCUGGGCAACAUUCCGAGGGGACCGUCCCCUCGGUAAUGGCGAAUGGGACCCA [C19U C26A]
Class: 1.0
//
Entry Sequence: GGCCGGCAUGGUCCCAGCCUCCUCGCUUGCGCCGGCUGGGCAACAUUCCGAGGGGACCGUCCCCUGGGUAAUGGCGAAUGGGACCCA [G28U C66G]
Class: 0.0
//
Entry Sequence: GGCCGGCAUGGUCCCAGCCUCCUCGCUGGCGCCCGCUGGUCAACAUUCCGAGGGGACCGUCCCCUCGGUAAUGGCGAAUGGGACCCA [G34C G40U]
Class: 0.0
//
Entry Sequence: GGCCGGCAUGGUCCCAGCCUCCUCGCAGGCGCCGUCUGGGCAACAUUCCGAGGGGACCGUCCCCUCGGUAAUGGCGAAUGGGACCCA [U27A G35U]
Class: 0.0

API: above_or_equal(metric=self-cleavage, cutoff=0.4) for item GGCCGGCAUGGUCCCAACCUCCUCCCUGGCGCCGGCUGGGCAACAUUCCGAGGGGACCGUCCCCUCGGUAAUGGCGAAUGGGACCCA [G17A G25C]
0.0

API: above_or_equal(metric=self-cleavage, cutoff=0.4) for item GGCCGGCAUGGUCCCAGCCUCCUCGCGGGCGCCGGCUGGGCAACACUCCGAGGGGACCGUCCCCUCGGUAAUGGCGAAUGGGACCCA [U27G U46C]
1.0

API: above_or_equal(metric=self-cleavage, cutoff=0.4) for item GGCCGGCAUGGUCCCAGCCUCCUCCCUGGCGCCGGCUGGGCAACCUUCCGAGGGGACCGUCCCCUCGGUAAUGGCGAAUGGGACCCA [G25C A45C]
0.0

API: above_or_equal(metric=self-cleavage, cutoff=0.4) for item GGCCGGCAUGGUCCCAGCCUCCUCGCUGGCGCCGGCUGGGCAACAUUCCGAGGGGACCGGCCCCUCGGUAAUGGCAAAUGGGACCCA [U60G G76A]
1.0

API: above_or_equal(metric=self-cleavage, cutoff=0.4) for item GGCCGGCAUGGUCCCAGCCUGCUCGCUGGUGCCGGCUGGGCAACAUUCCGAGGGGACCGUCCCCUCGGUAAUGGCGAAUGGGACCCA [C21G C30U]
0.0

API: above_or_equal(metric=self-cleavage, cutoff=0.4) for item AGCCGGCAUGGUUCCAGCCUCCUCGCUGGCGCCGGCUGGGCAACAUUCCGAGGGGACCGUCCCCUCGGUAAUGGCGAAUGGGACCCA [G1A C13U]
0.0
